Data provenance: paper PMC3669666

biological target: frog AHR1β N325S mutant (Xenopus laevis, UniProt Q4QY30, N325S); assay: Transactivation; type: cell-based
pEC50: −log10 of the molar value.
readout: pEC50

[[record]]
sample_smiles = "Clc1cc2c(cc1Cl)Oc1cc(Cl)c(Cl)cc1O2"
measured = 8.24


====

target: chimeric frog AHR1β containing the mouse LBD (Xenopus laevis, UniProt P30561+Q4QY30); experiment: Transactivation; settings: read-out: EC50 for reporter gene induction; FICZ, (3 hr), COS-7 cells, chimera
readout: EC50 (nM)

[[record]]
compound = "O=Cc1c2[nH]c3ccccc3c2cc2[nH]c3ccccc3c12 [FICZ, 6-formylindolo[3,2b]carbazole]"
measured = 0.03

